B1: IRX6 (parent)
chain: YPCLEKPRIWSLAHTATASAVEGA

variants of: B1; test: protein stability index of a GFP-peptide fusion (GPS, HEK-293T) (PSI 1-6); higher = more stable; conditions: c terminus: a fixed tail appended;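 further: lentivirally expressed fusions sorted by FACS into six bins by GFP to DsRed ratio, PSI derived from sequencing read proportions per bin multiplied by bin number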
Below: a set of entries, each annotated with reported protein stability index.

Study these solved cases before continuing.
> print(dat)
   sequence.variant  endpoint.result
1              W10T             4.09
2              A20N             2.87
3              H14K             1.66
4               K6F             2.54
5              A13K              2.9

**Query** Name the recorded protein stability index of the variant listed here: A20L
**Result** 3.52

**Query** Name the recorded protein stability index of the variant listed here: T15S
**Result** 2.26
